ASSAY OVERVIEW: in vitro
ASSAY CONDITIONS: Sprague-Dawley, rat, s9
For each record, write down the corresponding half-life at 1 h, 1 µM.
Numbers only, in h.

-- ask # lookup: half-life at 1 h, 1 µM of O=C(O)Cc1ccccc1Nc1c(Cl)cccc1Cl [diclofenac, reference compound]
-- reply 1.7

New cases:
-- ask Given the entry `CN(C(=O)/C=C/c1ccco1)[C@H]1CC[C@@]2(O)[C@H]3Cc4ccc(O)c5c4[C@@]2(CCN3CC2CC2)[C@H]1O5.Cl` , report its measured half-life at 1 h, 1 µM.
-- reply 1.16

---

TARGET OF ASSAY: KOR (Mus musculus, UniProt P33534)
Construct: membrane homogenate
ASSAY OVERVIEW: [35S]-GTPγS functional assay, KOR
ASSAY CONDITIONS: mKOR-CHO membranes
ASSAY READOUT: log10(EC50) (log10 of the value in nM)
# log10 transformed; quantity=EC50; unit=nM

Below, each entry is followed by its recorded log10(EC50) result.
-- ask Reported log10(EC50) for O=C(/C=C/c1ccco1)N[C@H]1CC[C@@]2(O)[C@H]3Cc4cccc5c4[C@@]2(CCN3CC2CC2)[C@H]1O5 [Compound 18] : what is it?
-- reply 3.14

-- ask So what does the record say about log10(EC50) for Cl.O=C(CCc1ccco1)N[C@@H]1CC[C@@]2(O)[C@H]3Cc4ccc(O)c5c4[C@@]2(CCN3CC2CC2)[C@H]1O5 [Compound 16] ?
-- reply 0.21

-- ask Give the measured log10(EC50) of CN(C(=O)CCc1ccco1)[C@H]1CC[C@@]2(O)[C@H]3Cc4ccc(O)c5c4[C@@]2(CCN3CC2CC2)[C@H]1O5 [Compound 13] .
-- reply -1.40

-- ask What does the data say about its log10(EC50)? Entry: O=C(CCc1ccoc1)N[C@@H]1CC[C@@]2(O)[C@H]3Cc4cccc5c4[C@@]2(CCN3CC2CC2)[C@H]1O5 [Compound 4]
-- reply 2.07

-- ask For the compound CN(C(=O)CCc1ccco1)[C@@H]1CC[C@@]2(O)[C@H]3Cc4cccc5c4[C@@]2(CCN3CC2CC2)[C@H]1O5 [Compound 11] , what log10(EC50) is on record?
-- reply 2.16

-- ask // query log10(EC50) value for entry Cl.O=C(CCc1ccco1)N[C@H]1CC[C@@]2(O)[C@H]3Cc4ccc(O)c5c4[C@@]2(CCN3CC2CC2)[C@H]1O5 [Compound 14]
-- reply 0.72

I'm hoping you can list log10(EC50) for every compound here, please.
1. O=C(/C=C/c1ccco1)N[C@@H]1CC[C@@]2(O)[C@H]3Cc4cccc5c4[C@@]2(CCN3CC2CC2)[C@H]1O5 [Compound 20]
2. O=C(CCc1ccoc1)N[C@H]1CC[C@@]2(O)[C@H]3Cc4cccc5c4[C@@]2(CCN3CC2CC2)[C@H]1O5 [Compound 2]

-- reply
1. 2.25
2. 3.00

---

TARGET OF ASSAY: KOR (Mus musculus)
Construct: expressed in transfected cells; membrane homogenate
ASSAY OVERVIEW: Competitive radioligand binding assay, KOR
ASSAY CONDITIONS: ratio of Ki values
ASSAY READOUT: selectivity ratio μ/κ
Give bare numbers.

Count: 7. Required value per item: selectivity ratio μ/κ.
1. CN(C(=O)/C=C/c1ccco1)[C@H]1CC[C@@]2(O)[C@H]3Cc4cccc5c4[C@@]2(CCN3CC2CC2)[C@H]1O5 [Compound 17]
2. CN(C(=O)/C=C/c1ccco1)[C@H]1CC[C@@]2(O)[C@H]3Cc4ccc(O)c5c4[C@@]2(CCN3CC2CC2)[C@H]1O5.Cl [Compound 21]
3. CN(C(=O)CCc1ccoc1)[C@@H]1CC[C@@]2(O)[C@H]3Cc4cccc5c4[C@@]2(CCN3CC2CC2)[C@H]1O5 [Compound 3]
4. CN(C(=O)/C=C/c1ccco1)[C@@H]1CC[C@@]2(O)[C@H]3Cc4cccc5c4[C@@]2(CCN3CC2CC2)[C@H]1O5 [Compound 19]
5. O=C(CCc1ccco1)N[C@@H]1CC[C@@]2(O)[C@H]3Cc4cccc5c4[C@@]2(CCN3CC2CC2)[C@H]1O5 [Compound 12]
6. O=C(/C=C/c1ccco1)N[C@@H]1CC[C@@]2(O)[C@H]3Cc4cccc5c4[C@@]2(CCN3CC2CC2)[C@H]1O5 [Compound 20]
7. CN(C(=O)/C=C/c1ccco1)[C@@H]1CC[C@@]2(O)[C@H]3Cc4ccc(O)c5c4[C@@]2(CCN3CC2CC2)[C@H]1O5.Cl [Compound 23]

-- reply
1. 27
2. 1
3. 1
4. 52
5. 1
6. 6
7. 4

-- ask State the recorded selectivity ratio μ/κ for this entry: CN(C(=O)CCc1ccco1)[C@@H]1CC[C@@]2(O)[C@H]3Cc4cccc5c4[C@@]2(CCN3CC2CC2)[C@H]1O5 [Compound 11]
-- reply 2

---

TARGET OF ASSAY: KOR (Mus musculus)
Construct: expressed in transfected cells; membrane homogenate
ASSAY OVERVIEW: Competitive radioligand binding assay, KOR
ASSAY CONDITIONS: [3H]diprenorphine, mKOR-CHO membranes; read-out: radioligand binding affinity (Ki, nM) KOR
ASSAY READOUT: Ki
Put down the number, then write its unit next to it.

-- ask Which Ki is reported with KOR (Mus musculus) for this entry: `Cl.O=C(CCc1ccco1)N[C@@H]1CC[C@@]2(O)[C@H]3Cc4ccc(O)c5c4[C@@]2(CCN3CC2CC2)[C@H]1O5` ?
-- reply 0.61 nM

---

TARGET OF ASSAY: DOR (Homo sapiens)
Construct: expressed in transfected cells; membrane homogenate
ASSAY OVERVIEW: Competitive radioligand binding assay, DOR
I'd be grateful if you could share measured Ki for these entries.
Answers are plain numbers, in nM.

Worked examples, 3 compounds total:
-- ask Please provide the recorded Ki for `CN(C(=O)/C=C/c1ccco1)[C@H]1CC[C@@]2(O)[C@H]3Cc4cccc5c4[C@@]2(CCN3CC2CC2)[C@H]1O5` , tested on DOR (Homo sapiens).
-- reply 68.4

-- ask Ki of `CN(C(=O)CCc1ccco1)[C@H]1CC[C@@]2(O)[C@H]3Cc4ccc(O)c5c4[C@@]2(CCN3CC2CC2)[C@H]1O5` on DOR (Homo sapiens)?
-- reply 0.37

-- ask Form entry - test system: DOR (Homo sapiens); read-out: Ki; compound: `O=C(CCc1ccoc1)N[C@@H]1CC[C@@]2(O)[C@H]3Cc4cccc5c4[C@@]2(CCN3CC2CC2)[C@H]1O5`
-- reply 749

Kindly give each listed record's Ki.
1. CN(C(=O)CCc1ccco1)[C@@H]1CC[C@@]2(O)[C@H]3Cc4cccc5c4[C@@]2(CCN3CC2CC2)[C@H]1O5
2. O=C(/C=C/c1ccco1)N[C@H]1CC[C@@]2(O)[C@H]3Cc4cccc5c4[C@@]2(CCN3CC2CC2)[C@H]1O5
3. O=C(CCc1ccco1)N[C@@H]1CC[C@@]2(O)[C@H]3Cc4cccc5c4[C@@]2(CCN3CC2CC2)[C@H]1O5
4. O=C(/C=C/c1ccco1)N[C@@H]1CC[C@@]2(O)[C@H]3Cc4cccc5c4[C@@]2(CCN3CC2CC2)[C@H]1O5
5. CN(C(=O)CCc1ccoc1)[C@@H]1CC[C@@]2(O)[C@H]3Cc4cccc5c4[C@@]2(CCN3CC2CC2)[C@H]1O5

-- reply
[532, 456, 800, 551, 891]

---

TARGET OF ASSAY: UniProtKB P42866
ASSAY OVERVIEW: [35S]-GTPγS functional assay, MOR
Assay type: biochemical
Parameters: expressed in transfected cells; membrane homogenate
ASSAY CONDITIONS: mMOR-CHO membranes
ASSAY READOUT: pEC50
One number for each entry, as −log10 of the molar value.

-- ask Quick check: pEC50 on UniProtKB P42866, item `O=C(CCc1ccco1)N[C@@H]1CC[C@@]2(O)[C@H]3Cc4cccc5c4[C@@]2(CCN3CC2CC2)[C@H]1O5` ?
-- reply 6.98

Hey, quick one: what's pEC50 for each of these?
1. O=C(/C=C/c1ccco1)N[C@H]1CC[C@@]2(O)[C@H]3Cc4ccc(O)c5c4[C@@]2(CCN3CC2CC2)[C@H]1O5
2. O=C(/C=C/c1ccco1)N[C@H]1CC[C@@]2(O)[C@H]3Cc4cccc5c4[C@@]2(CCN3CC2CC2)[C@H]1O5
3. CN(C(=O)CCc1ccco1)[C@H]1CC[C@@]2(O)[C@H]3Cc4ccc(O)c5c4[C@@]2(CCN3CC2CC2)[C@H]1O5
4. CN(C(=O)CCc1ccco1)[C@H]1CC[C@@]2(O)[C@H]3Cc4cccc5c4[C@@]2(CCN3CC2CC2)[C@H]1O5
5. CN(C(=O)CCc1ccoc1)[C@@H]1CC[C@@]2(O)[C@H]3Cc4ccc(O)c5c4[C@@]2(CCN3CC2CC2)[C@H]1O5

-- reply
1. 8.53
2. 5.82
3. 9.51
4. 7.12
5. 8.37

Data origin: paper PMC11181328
